# ASSAY: Human HepG2 cell viability assay in 384 well format
# Assay type: toxicity, cell-based
# Parameters: dose 125 nL, time 70.5 hour; concentration not given beside the values
# CONDITION PARAMETERS: HepG2 cells, read-out: Inhibition
We begin with a simple list: items and their reported cytotoxicity at 70.5 h.
MEASUREMENT LABEL: cytotoxicity at 70.5 h (%)

# COMPOUND, READING
data = [
    ("Cc1cn2nc(N3CCN(Cc4c(C)noc4C)CC3)sc2n1", 0.994),
    ("O=c1ccc2c(n1Cc1cccnc1)CCN(CC1CCOC1)CC2 (centres undefined)", -4.17),
    ("Cc1nc(C)c(CC(=O)Nc2nc(C)c(C)s2)c(=O)[nH]1", -17.1),
    ("CCS(=O)(=O)Cc1csc(-c2ccc(S(C)(=O)=O)cc2)n1", -6.86),
    ("O=C(C1CCOC1)N1CCC(Cn2cc(-c3ccsc3)nn2)CC1 (centres undefined)", -11.1),
    ("O=C(O)c1coc(COc2cccc3cnccc23)n1", -7.63),
    ("CN(C)S(=O)(=O)N1C[C@@H]2CC[C@H](C1)N(CCC(=O)NCc1ccco1)C2", 2.74),
    ("CC(C)CN1C[C@H]2CCN(C(=O)c3ccccn3)CC[C@H]2S1(=O)=O", -4.38),
    ("CN(C(=O)CCNC(=O)C1COc2ccccc21)c1ccccc1 (centres undefined)", -6.34),
    ("CCc1nnc(CSc2ccccn2)o1", -9.38),
    ("CCn1c(C)cc(C(=O)N2CCC(Nc3ccc(C)nn3)CC2)c1C", -91.3),
    ("O[C@]1(c2ccccn2)CC[C@@H]2CN(Cc3cccc4ncccc34)C[C@@H]21", 15.3),
    ("CCN(CC)C1(Cc2cc(-c3cccc(O)c3)on2)COC1", -8.06),
    ("CCOCC(=O)N1CC[C@H]2[C@@H]1CCC(=O)N2Cc1csc(C)n1", -10.5),
    ("CCc1nc(CCNC(=O)Nc2cc(C(N)=O)ccc2OC)cs1", -12.4),
    ("c1ccc(CN2CCOC3(CCN(c4ncccn4)CC3)C2)nc1", 12),
    ("CN(C)c1ccc(C(=O)NCc2cccnc2-n2cncn2)cc1F", -17.5),
    ("CC(C)NC(=O)C1CCC2(CCN(Cc3cnn(C)c3)CC2)CO1 (centres undefined)", -17),
    ("O=C(CCc1ccncc1)N1CCCC(N2CCNC2=O)C1 (centres undefined)", -19.2),
    ("Cc1ccc(C(=O)NCC(O)c2cnn(C)c2)c(Br)c1 (centres undefined)", -14.7),
    ("Cn1cnc(CNC(=O)c2ccccc2-n2cc(CN)cn2)c1", -5.11),
    ("CC(C)(C)C(=O)NCCC(=O)NS(=O)(=O)c1cccnc1", 9.3),
    ("CCOC(=O)c1sc(NC(=O)C(C)(C)C)c(C#N)c1C", 41.6),
    ("Cn1cnc2cc(C(=O)N3CCC(c4ccccc4C(=O)O)C3)cnc21 (centres undefined)", -8.01),
]

---

# ASSAY: Human HepG2 cell viability assay in 384 well format
# Format: toxicity, cell-based
# Set-up: dose 125 nL, time 70.5 hour; concentration not given beside the values
# CONDITION PARAMETERS: HepG2 cells, read-out: Inhibition
MEASUREMENT LABEL: cytotoxicity at 70.5 h (%)

# COMPOUND, READING
data = [
    ("COCC(=O)N1CCC(C(=O)N(C)CCCc2nccn2C)CC1", 1.13),
    ("CNC(=O)c1ccccc1NCc1ncnn1C", -96.8),
    ("Cc1cc(C(=O)N(CC(C)C)CC(O)c2ccc(F)cc2)[nH]n1 (centres undefined)", -2.51),
    ("Cc1cnc(C(=O)N2CCOCC2c2ccccc2)cn1 (centres undefined)", -10.2),
    ("CN(Cc1ccccc1)C(=O)CS(=O)(=O)Cc1ccc(Cl)c(Cl)c1", -4.65),
    ("Cn1cc(NC(=O)Cn2c(CS(C)(=O)=O)nc3ccccc32)cn1", -6.35),
    ("CCOC(C)c1nc(CN2CCN(c3nccc(C)n3)CC2)cs1 (centres undefined)", -8.29),
    ("CC(C)(C)CC(=O)NC[C@H]1OC[C@@H](NC2CCC(F)(F)CC2)[C@@H]1O", -5.07),
    ("O=C(c1sccc1C1CC1)N1CCN(c2cnccn2)CC1", -11.8),
    ("CN1CCN(c2ncc3c(=O)n(Cc4ccco4)ccc3n2)CC1", -9.22),
    ("CCOc1cc(C)nc(N2CCN(C(=O)c3cc(Cl)c[nH]3)CC2)n1", -8.74),
    ("CCO[C@H]1CN(C)C[C@@H]1NC(=O)c1cc(C)nc2c(C)cccc12", -8.5),
    ("CCN(Cc1nccn1C)C(=O)c1ccc(NCCc2c[nH]cn2)nc1", 4.71),
    ("CN(CCCO)c1nc(-c2ccc(C(N)=O)cc2)nc2c1CCNC2", -13.3),
    ("Cc1nc(C)n(CC2CCCN2Cc2nc(C)c3ccccc3n2)n1 (centres undefined)", -7.3),
    ("OC1(CN2CCC(Oc3cccnc3)CC2)CNCCOC1 (centres undefined)", -7.48),
    ("CC(C)CCNC(=O)c1csc(NC2CC2)n1", -9.92),
    ("Cc1nc(CN2CCOC(CN(C)c3cccnn3)C2)cs1 (centres undefined)", -12.9),
    ("CS(=O)(=O)c1ccc(NC(=O)NCCC2=CCCCC2)cc1", -10.3),
    ("COc1cc2c(cc1CN1CCc3sccc3C1C)OCO2 (centres undefined)", 2.98),
    ("CCCc1n[nH]c(C2CN(CCNS(=O)(=O)CC)CCO2)n1 (centres undefined)", 7.53),
    ("O=C(c1ccco1)N1CCCC12CCN(c1ncccn1)CC2", -7.14),
    ("O=C1NC2(Cc3ccccc31)CN(CC1CCNC1)C2 (centres undefined)", -11.5),
    ("O=C(c1cccnc1)N1CCC2(CC1)COC(COc1ccccn1)C2 (centres undefined)", -11.7),
    ("CC(CN1CCCC1)C(=O)NCC1CCN(c2cnn(C)c(=O)c2)CC1 (centres undefined)", -5.06),
    ("Cc1ccc(N2C[C@H]3CCN(Cc4ccncc4)C[C@H]3C2)nn1", -9.91),
    ("COCCNC(=O)NC1(c2nc(-c3ccncc3)no2)CCCCC1", 5.97),
    ("COc1ccccc1CNc1ccc2nncn2n1", -11.2),
    ("Cc1nc(O)cc(CCNC(=O)CN2CCCCCC2)n1", 1.28),
    ("Cc1nccn1CCC1CCCCN1Cc1cnc(N(C)C)nc1 (centres undefined)", -3.91),
    ("CC(OCc1ccccc1)C(=O)NC1CCN(CC(N)=O)CC1 (centres undefined)", -6.55),
    ("CCN1CCC(NC(=O)CN2CCCC2Cn2nc(C)nc2C)CC1 (centres undefined)", 3.87),
    ("Cn1nc2c(cc1=O)CN(c1ncnc3sccc13)CC2", 5.63),
    ("CC(=O)N1[C@H](Cn2cncn2)C[C@@H]2CN(Cc3ccncc3)CC[C@@H]21", -3.75),
]
